The following molecules are listed with their measured inhibition values.
- tested-system: Dual specificity protein kinase CLK3 (Homo sapiens)
- test-conditions: at 0.1 µM
- Description: GSK_PKIS: CLK3 mean inhibition at 0.1 uM [Nanosyn]
Provide only the numeric value, understood in %.

# annotated cases, reported inhibition shown
COc1cccc(-n2cnc3c(N/N=C/c4ccncc4)ncnc32)c1 -3.93
COc1cc2ncn(-c3cc(OCc4ccccc4C(F)(F)F)c(C(C)=O)s3)c2cc1OC 0.94
Fc1ccc(-c2c(-c3ccncc3)nc3n2CCS3)cc1 -2.3
COc1ccc2cc(-c3c(-c4ccncc4)nc(-c4ccc(S(C)(=O)=O)cc4C)n3C)ccc2c1 1.66
CCC(=O)Nc1ccc(C)c(-c2ccc(C(=O)NCC3CC3)cc2)c1 0.16

INPUT: # get_value(readout='inhibition', item= "Cc1ccc(C(=O)NC2CCC2)cc1-c1ccc(C(=O)NCC2CC2)cc1" )
OUTPUT: 1.37

INPUT: Recorded inhibition of "CCc1nccc2c1nc(-c1nonc1N)n2CC" , please.
OUTPUT: -0.31

INPUT: I am curious: what inhibition value has been reported for "CCS(=O)(=O)c1ccc(OC)c(Nc2ncc(-c3cccc(-c4ccccc4F)c3)o2)c1" ?
OUTPUT: 2.7

INPUT: Returns the measured inhibition for the input molecule. Input: "C#Cc1cccc(Nc2ncnc3ccc(OCCCCNCCS(C)(=O)=O)cc23)c1"
OUTPUT: -1.3

INPUT: // inhibition lookup, key: "CCS(=O)(=O)c1ccc(OC)c(Nc2ncc(-c3ccccc3Cl)o2)c1"
OUTPUT: 0.66

INPUT: Using the record for "O=C1Nc2ccc(I)cc2C1=Cc1cc(Br)c(O)c(Br)c1" , report its inhibition.
OUTPUT: -0.91

INPUT: Returns the measured inhibition for the input molecule. Input: "Clc1ccc(CNc2nccc(-c3cnn4ncccc34)n2)cc1"
OUTPUT: 1.27

INPUT: Entry "O=C(Nc1n[nH]c2cc(-c3ccccc3)ccc12)C1CC1" has what inhibition?
OUTPUT: 0.78

INPUT: Fill in the blank: the reported inhibition of "C[C@@H](Oc1cc(-n2cnc3ccc(OC4CCN(C)CC4)cc32)sc1C(N)=O)c1ccccc1Cl" is ____.
OUTPUT: -2.76

INPUT: Consider the molecule shown here: "c1ccc(-c2n[nH]cc2-c2ccnc(-c3ccc(OCCN4CCOCC4)cc3)c2)nc1" What is its recorded inhibition?
OUTPUT: 0.66

INPUT: I would be grateful if you could share the reported inhibition for "CN(C)CCCNc1nccc(-c2c(-c3ccc(F)cc3)nn3cc(C(F)(F)F)ccc23)n1" .
OUTPUT: -2.82

INPUT: Quick one: inhibition for "FC(F)(F)c1cccc(Nc2nccc(-c3cnn4nc(-c5ccccc5)ccc34)n2)c1" ?
OUTPUT: 1.66

INPUT: // lookup inhibition for "CS(=O)(=O)CCNCc1cc(-c2cc3c(Nc4ccc(OCc5cccc(F)c5)c(Cl)c4)ncnc3s2)cs1"
OUTPUT: 2.21

INPUT: Query (molecule): "O=C(Nc1ccc(Oc2ccc3[nH]c(NC(=O)c4ccccc4)nc3c2)cc1)Nc1cc(C(F)(F)F)ccc1F" ; field requested: inhibition
OUTPUT: 1.59

INPUT: Data request, read-out inhibition, for "COc1cc(Nc2ncc3c(C)nc(-c4cccc(C(F)(F)F)c4)n3n2)cc(OC)c1OC"
OUTPUT: 1.23

INPUT: What value of inhibition has been recorded for this entry: "COc1cc(Nc2ncc(-c3ccccc3)o2)cc(OC)c1OC"
OUTPUT: 0.69
